target-or-system: EIF2AK1 (human)
assay-summary: KINOMEscan competition binding
test-settings: compound 10.0 µM
Parameter kinase still bound, per cent of control: see the listing below.

{"smiles-code": "N#Cc1c(NC(=O)c2cccc3ccccc23)sc2c1CCCC2", "kinase still bound, per cent of control / %": 100}
{"smiles-code": "CCN1CCN(Cc2ccc(Nc3ncc4c(n3)N(C)c3ccccc3C(=O)N4C)cc2C(F)(F)F)CC1", "kinase still bound, per cent of control / %": 100}
{"smiles-code": "C[C@@H](Oc1cc(-n2cnc3ccc(CN4CCN(C)CC4)cc32)sc1C(N)=O)c1ccccc1C(F)(F)F", "kinase still bound, per cent of control / %": 94}
{"smiles-code": "Cc1cc([C@@H](C)Nc2ccccc2C(=O)O)c2nc(N3CCOCC3)cc(=O)n2c1", "kinase still bound, per cent of control / %": 97}
{"smiles-code": "O=C(O)c1ccc(Nc2ncc3c(n2)-c2ccc(Cl)cc2C(c2c(F)cccc2F)=NC3)cc1", "kinase still bound, per cent of control / %": 89}
{"smiles-code": "Cc1ccc(NC(=O)c2cccc(C(C)(C)C#N)c2)cc1Nc1ccc2ncn(C)c(=O)c2c1", "kinase still bound, per cent of control / %": 84}
{"smiles-code": "O=C(NOC[C@H](O)CO)c1ccc(F)c(F)c1Nc1ccc(I)cc1F", "kinase still bound, per cent of control / %": 100}
{"smiles-code": "C=CC(=O)Nc1cccc(Nc2nc(N[C@H]3CC[C@H](N(C)C)CC3)nc3c2ncn3C(C)C)c1", "kinase still bound, per cent of control / %": 100}
{"smiles-code": "COc1cc(N2CCN(C)CC2)ccc1Nc1nc(N)c(C(=O)c2c(Cl)cccc2Cl)s1", "kinase still bound, per cent of control / %": 100}
{"smiles-code": "CCOc1cc2ncc(C#N)c(Nc3ccc(OCc4ccccn4)c(Cl)c3)c2cc1NC(=O)/C=C/CN(C)C", "kinase still bound, per cent of control / %": 100}
{"smiles-code": "CN(C)C/C=C/C(=O)Nc1cccc(Nc2ncc3c(n2)N(C)c2ccccc2C(=O)N3C)c1", "kinase still bound, per cent of control / %": 100}
{"smiles-code": "CCCS(=O)(=O)Nc1ccc(F)c(C(=O)c2c[nH]c3ncc(-c4ccc(Cl)cc4)cc23)c1F", "kinase still bound, per cent of control / %": 60}
{"smiles-code": "Nc1ccc(-c2ccc3ncc4ccc(=O)n(-c5cccc(C(F)(F)F)c5)c4c3c2)cn1", "kinase still bound, per cent of control / %": 91}
{"smiles-code": "O=C1Nc2ccc(I)cc2/C1=C/c1cc(Br)c(O)c(Br)c1", "kinase still bound, per cent of control / %": 57}
{"smiles-code": "Cc1ccc2nc(NCCN)c3ncc(C)n3c2c1", "kinase still bound, per cent of control / %": 87}
{"smiles-code": "CCC(=O)N1CCN(c2ccc(-n3c(=O)ccc4cnc5ccc(-c6cnc7ccccc7c6)cc5c43)cc2C(F)(F)F)CC1", "kinase still bound, per cent of control / %": 57}
{"smiles-code": "O=C(NC1CC1)c1cccc(-c2ccc3c(NC(=O)C4CC4)n[nH]c3c2)c1", "kinase still bound, per cent of control / %": 100}
{"smiles-code": "C=CC(=O)Nc1cc(NC(=O)c2ccc(C)c(NC(=O)c3ccno3)c2)cc(C(F)(F)F)c1", "kinase still bound, per cent of control / %": 100}

====

target-or-system: MARK3 (human) (UniProt P27448)
Sequence (P27448 whole entry, looked up): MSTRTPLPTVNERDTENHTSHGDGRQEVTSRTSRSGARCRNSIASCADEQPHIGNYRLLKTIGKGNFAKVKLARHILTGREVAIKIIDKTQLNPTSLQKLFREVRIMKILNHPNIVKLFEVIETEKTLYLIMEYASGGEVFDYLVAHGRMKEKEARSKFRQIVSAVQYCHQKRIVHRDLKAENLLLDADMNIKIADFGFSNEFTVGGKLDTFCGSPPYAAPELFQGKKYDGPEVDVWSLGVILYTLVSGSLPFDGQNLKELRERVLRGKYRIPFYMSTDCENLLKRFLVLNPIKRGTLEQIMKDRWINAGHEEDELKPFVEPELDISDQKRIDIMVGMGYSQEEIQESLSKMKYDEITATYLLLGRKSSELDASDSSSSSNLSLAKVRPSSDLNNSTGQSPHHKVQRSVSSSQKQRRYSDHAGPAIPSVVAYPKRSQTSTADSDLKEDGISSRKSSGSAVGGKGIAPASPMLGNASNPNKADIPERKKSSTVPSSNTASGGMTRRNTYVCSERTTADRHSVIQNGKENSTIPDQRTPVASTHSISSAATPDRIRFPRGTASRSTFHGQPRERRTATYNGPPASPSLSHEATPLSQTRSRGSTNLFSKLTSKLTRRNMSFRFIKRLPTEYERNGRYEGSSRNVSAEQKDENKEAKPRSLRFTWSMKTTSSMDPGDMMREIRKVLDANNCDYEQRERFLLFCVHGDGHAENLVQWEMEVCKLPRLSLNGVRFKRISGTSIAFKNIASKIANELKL
assay-summary: KINOMEscan competition binding
test-settings: compound 10.0 µM
measure: kinase still bound, per cent of control (%)

{"smiles-code": "C=CC(=O)Nc1cccc(Oc2nc(Nc3ccc(N4CCN(C)CC4)cc3OC)ncc2Cl)c1", "experimental-result": 7.8}
{"smiles-code": "O=C(NOC[C@H](O)CO)c1ccc(F)c(F)c1Nc1ccc(I)cc1F", "experimental-result": 91}
{"smiles-code": "Cc1ccc(NC(=O)c2cccc(C(C)(C)C#N)c2)cc1Nc1ccc2ncn(C)c(=O)c2c1", "experimental-result": 89}
{"smiles-code": "N#Cc1c(NC(=O)c2cccc3ccccc23)sc2c1CCCC2", "experimental-result": 89}
{"smiles-code": "Cc1ccc(C(=O)Nc2cccc(C(F)(F)F)c2)cc1Nc1cncc(C(N)=O)c1", "experimental-result": 100}
{"smiles-code": "O=C1Nc2ccc(I)cc2/C1=C/c1cc(Br)c(O)c(Br)c1", "experimental-result": 68}

====

target-or-system: PLK2 (human) (UniProt Q9NYY3)
Sequence (Q9NYY3 whole entry, looked up): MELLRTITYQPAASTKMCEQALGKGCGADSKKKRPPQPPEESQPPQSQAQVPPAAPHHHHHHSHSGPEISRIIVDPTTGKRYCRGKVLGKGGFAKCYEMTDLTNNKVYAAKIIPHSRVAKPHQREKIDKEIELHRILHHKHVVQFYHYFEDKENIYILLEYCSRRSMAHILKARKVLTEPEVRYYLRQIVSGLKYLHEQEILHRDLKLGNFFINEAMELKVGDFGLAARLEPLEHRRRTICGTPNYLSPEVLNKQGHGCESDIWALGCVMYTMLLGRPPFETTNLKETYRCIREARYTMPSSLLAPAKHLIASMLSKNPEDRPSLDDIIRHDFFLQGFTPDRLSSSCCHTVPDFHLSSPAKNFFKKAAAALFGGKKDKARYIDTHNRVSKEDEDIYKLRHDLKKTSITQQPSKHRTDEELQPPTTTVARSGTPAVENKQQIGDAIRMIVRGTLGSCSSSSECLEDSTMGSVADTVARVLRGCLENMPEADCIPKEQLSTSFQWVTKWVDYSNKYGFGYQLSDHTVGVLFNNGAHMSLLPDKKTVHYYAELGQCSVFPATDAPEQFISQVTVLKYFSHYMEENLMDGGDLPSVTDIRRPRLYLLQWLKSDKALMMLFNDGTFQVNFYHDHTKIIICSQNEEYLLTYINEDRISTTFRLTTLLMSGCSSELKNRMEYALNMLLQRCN
assay-summary: KINOMEscan competition binding
test-settings: compound 10.0 µM
measure: kinase still bound, per cent of control (%)

{"smiles-code": "O=C(NC1CC1)c1cccc(-c2ccc3c(NC(=O)C4CC4)n[nH]c3c2)c1", "experimental-result": 88}
{"smiles-code": "Cc1ccc2nc(NCCN)c3ncc(C)n3c2c1", "experimental-result": 100}
{"smiles-code": "C=CC(=O)Nc1cc(NC(=O)c2ccc(C)c(NC(=O)c3ccno3)c2)cc(C(F)(F)F)c1", "experimental-result": 100}
{"smiles-code": "N#Cc1c(NC(=O)c2cccc3ccccc23)sc2c1CCCC2", "experimental-result": 100}
{"smiles-code": "CCN1CCN(Cc2ccc(Nc3ncc4c(n3)N(C)c3ccccc3C(=O)N4C)cc2C(F)(F)F)CC1", "experimental-result": 100}

====

Parameter kinase still bound, per cent of control: see the listing below.
target-or-system: MAPK13 (human) (UniProt O15264)
Sequence (O15264 whole entry, looked up): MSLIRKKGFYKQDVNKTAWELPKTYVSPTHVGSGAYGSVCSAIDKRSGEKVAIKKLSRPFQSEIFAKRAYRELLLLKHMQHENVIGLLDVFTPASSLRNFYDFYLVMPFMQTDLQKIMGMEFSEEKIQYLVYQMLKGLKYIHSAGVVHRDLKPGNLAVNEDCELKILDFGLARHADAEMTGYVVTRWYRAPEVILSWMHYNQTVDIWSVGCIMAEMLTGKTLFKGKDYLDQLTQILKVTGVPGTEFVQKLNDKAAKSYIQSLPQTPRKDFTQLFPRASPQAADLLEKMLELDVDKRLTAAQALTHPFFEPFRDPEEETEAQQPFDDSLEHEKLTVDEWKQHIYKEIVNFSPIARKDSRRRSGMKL
assay-summary: KINOMEscan competition binding
test-settings: compound 10.0 µM

{"smiles-code": "C=CC(=O)Nc1cc(NC(=O)c2ccc(C)c(NC(=O)c3ccno3)c2)cc(C(F)(F)F)c1", "kinase still bound, per cent of control / %": 90}
{"smiles-code": "O=C(NOC[C@H](O)CO)c1ccc(F)c(F)c1Nc1ccc(I)cc1F", "kinase still bound, per cent of control / %": 6.1}
{"smiles-code": "CCOc1cc2ncc(C#N)c(Nc3ccc(OCc4ccccn4)c(Cl)c3)c2cc1NC(=O)/C=C/CN(C)C", "kinase still bound, per cent of control / %": 99}
{"smiles-code": "O=C1Nc2ccc(I)cc2/C1=C/c1cc(Br)c(O)c(Br)c1", "kinase still bound, per cent of control / %": 100}
{"smiles-code": "COc1cc(C(=O)NC2CCN(C)CC2)ccc1Nc1ncc2c(n1)N(C1CCCC1)CCC(=O)N2C(C)C", "kinase still bound, per cent of control / %": 100}
{"smiles-code": "Cc1ccc2nc(NCCN)c3ncc(C)n3c2c1", "kinase still bound, per cent of control / %": 100}
{"smiles-code": "Cc1ccc(C(=O)Nc2cccc(C(F)(F)F)c2)cc1Nc1cncc(C(N)=O)c1", "kinase still bound, per cent of control / %": 100}
{"smiles-code": "N#Cc1c(NC(=O)c2cccc3ccccc23)sc2c1CCCC2", "kinase still bound, per cent of control / %": 46}
{"smiles-code": "C=CC(=O)Nc1cccc(Oc2nc(Nc3ccc(N4CCN(C)CC4)cc3OC)ncc2Cl)c1", "kinase still bound, per cent of control / %": 100}
{"smiles-code": "CCN1CCN(Cc2ccc(Nc3ncc4c(n3)N(C)c3ccccc3C(=O)N4C)cc2C(F)(F)F)CC1", "kinase still bound, per cent of control / %": 100}
{"smiles-code": "Cc1ccc(NC(=O)c2cccc(C(C)(C)C#N)c2)cc1Nc1ccc2ncn(C)c(=O)c2c1", "kinase still bound, per cent of control / %": 9.6}
{"smiles-code": "Cn1c(=O)n(-c2ccc(C(C)(C)C#N)cc2)c2c3cc(-c4cnc5ccccc5c4)ccc3ncc21", "kinase still bound, per cent of control / %": 100}
{"smiles-code": "CC[C@@H]1C(=O)N(C)c2cnc(Nc3ccc(C(=O)NC4CCN(C)CC4)cc3OC)nc2N1C1CCCC1", "kinase still bound, per cent of control / %": 100}
{"smiles-code": "O=C(O)c1ccc(Nc2ncc3c(n2)-c2ccc(Cl)cc2C(c2c(F)cccc2F)=NC3)cc1", "kinase still bound, per cent of control / %": 100}
{"smiles-code": "CN(C)C/C=C/C(=O)Nc1cccc(Nc2ncc3c(n2)N(C)c2ccccc2C(=O)N3C)c1", "kinase still bound, per cent of control / %": 61}
{"smiles-code": "O=C(NC1CC1)c1cccc(-c2ccc3c(NC(=O)C4CC4)n[nH]c3c2)c1", "kinase still bound, per cent of control / %": 5}

====

Tested on: PIK3CA (human), P42336 [C420R]
Sequence (P42336 whole entry C420R, looked up): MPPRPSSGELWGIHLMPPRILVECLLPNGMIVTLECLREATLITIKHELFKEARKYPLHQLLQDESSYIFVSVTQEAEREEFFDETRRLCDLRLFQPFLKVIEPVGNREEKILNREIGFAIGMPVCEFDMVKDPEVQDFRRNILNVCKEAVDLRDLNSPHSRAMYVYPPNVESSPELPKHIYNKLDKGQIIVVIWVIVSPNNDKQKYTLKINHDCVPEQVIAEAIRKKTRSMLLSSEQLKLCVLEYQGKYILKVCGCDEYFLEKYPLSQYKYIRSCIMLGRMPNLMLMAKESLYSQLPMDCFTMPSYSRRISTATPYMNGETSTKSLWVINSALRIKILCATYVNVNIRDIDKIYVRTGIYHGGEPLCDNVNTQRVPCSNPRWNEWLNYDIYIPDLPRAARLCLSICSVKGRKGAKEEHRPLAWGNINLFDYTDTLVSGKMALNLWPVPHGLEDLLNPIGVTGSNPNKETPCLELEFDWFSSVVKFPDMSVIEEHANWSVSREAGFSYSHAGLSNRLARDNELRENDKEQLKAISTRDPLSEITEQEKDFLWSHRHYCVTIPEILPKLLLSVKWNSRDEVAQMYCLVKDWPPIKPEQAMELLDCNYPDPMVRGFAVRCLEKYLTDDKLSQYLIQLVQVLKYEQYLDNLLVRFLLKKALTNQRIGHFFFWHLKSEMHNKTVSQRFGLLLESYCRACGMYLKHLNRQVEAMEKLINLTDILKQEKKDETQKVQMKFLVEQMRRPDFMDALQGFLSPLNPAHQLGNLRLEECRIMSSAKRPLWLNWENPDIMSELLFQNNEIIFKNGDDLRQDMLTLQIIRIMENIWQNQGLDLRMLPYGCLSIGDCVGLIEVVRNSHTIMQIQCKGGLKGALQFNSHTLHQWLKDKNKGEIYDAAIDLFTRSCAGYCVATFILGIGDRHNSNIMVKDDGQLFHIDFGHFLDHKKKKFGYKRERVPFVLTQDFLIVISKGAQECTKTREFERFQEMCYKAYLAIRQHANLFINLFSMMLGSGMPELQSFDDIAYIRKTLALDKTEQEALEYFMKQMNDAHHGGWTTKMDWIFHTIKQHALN
assay-summary: KINOMEscan competition binding
test-settings: compound 10.0 µM
Parameter kinase still bound, per cent of control: see the listing below.

{"molecule": "N#Cc1c(NC(=O)c2cccc3ccccc23)sc2c1CCCC2", "kinase still bound, per cent of control, %": 92}
{"molecule": "CCc1nc(-c2cccc(C)c2)c(-c2ccnc(NC(=O)c3ccccc3)c2)s1", "kinase still bound, per cent of control, %": 72}
{"molecule": "O=c1cc(N2CCOCC2)oc2c(-c3cccc4c3sc3ccccc34)cccc12", "kinase still bound, per cent of control, %": 19}
{"molecule": "O=C1NC(=O)/C(=C/c2ccc3nccc(-c4ccncc4)c3c2)S1", "kinase still bound, per cent of control, %": 0.4}
{"molecule": "CCN(CC)CCCCNc1ncc2c(n1)N(C)C(=O)N(c1c(Cl)c(OC)cc(OC)c1Cl)C2", "kinase still bound, per cent of control, %": 100}
{"molecule": "CN(C)C/C=C/C(=O)Nc1ccc(C(=O)Nc2cccc(Nc3nccc(-c4cccnc4)n3)c2)cc1", "kinase still bound, per cent of control, %": 100}
{"molecule": "C=CC(=O)Nc1ccc(C(=O)c2sc(Nc3ccc(N4CCN(C)CC4)cc3OC)nc2N)cc1", "kinase still bound, per cent of control, %": 83}
{"molecule": "Cc1ccc2nc(NCCN)c3ncc(C)n3c2c1", "kinase still bound, per cent of control, %": 52}
{"molecule": "CC(=O)c1c(C)c2cnc(Nc3ccc(N4CCNCC4)cn3)nc2n(C2CCCC2)c1=O", "kinase still bound, per cent of control, %": 41}
{"molecule": "O=C(NC1CC1)c1cccc(-c2ccc3c(NC(=O)C4CC4)n[nH]c3c2)c1", "kinase still bound, per cent of control, %": 100}
{"molecule": "COc1cc2c(Nc3ccc(NC(=O)c4ccccc4)cc3)ncnc2cc1OCCCN1CCOCC1", "kinase still bound, per cent of control, %": 68}
{"molecule": "C[C@@H](Oc1cc(-c2cnn(C3CCNCC3)c2)cnc1N)c1c(Cl)ccc(F)c1Cl", "kinase still bound, per cent of control, %": 71}
{"molecule": "Cc1cn(-c2cc(C(=O)Nc3ccc(C)c(NC(=O)c4ccno4)c3)cc(C(F)(F)F)c2)cn1", "kinase still bound, per cent of control, %": 100}
{"molecule": "CCCS(=O)(=O)Nc1ccc(F)c(C(=O)c2c[nH]c3ncc(-c4ccc(Cl)cc4)cc23)c1F", "kinase still bound, per cent of control, %": 100}
{"molecule": "COc1cc2ncnc(Nc3cccc(Cl)c3)c2cc1OC", "kinase still bound, per cent of control, %": 60}
{"molecule": "C=CC(=O)Nc1cccc(Nc2nc(N[C@H]3CC[C@H](N(C)C)CC3)nc3c2ncn3C(C)C)c1", "kinase still bound, per cent of control, %": 89}
{"molecule": "COc1ccc(N(C(=O)Oc2c(C)cccc2C)c2ccnc(Nc3ccc(N4CCN(C)CC4)cc3)n2)c(OC)c1", "kinase still bound, per cent of control, %": 100}
{"molecule": "O=C(Nc1cccc(Nc2ncc(Br)c(NCCc3cnc[nH]3)n2)c1)N1CCCC1", "kinase still bound, per cent of control, %": 81}
{"molecule": "C=CC(=O)Nc1cc(NC(=O)c2ccc(C)c(NC(=O)c3ccno3)c2)cc(C(F)(F)F)c1", "kinase still bound, per cent of control, %": 82}
{"molecule": "O=C(O)c1ccc(Nc2ncc3c(n2)-c2ccc(Cl)cc2C(c2c(F)cccc2F)=NC3)cc1", "kinase still bound, per cent of control, %": 67}
{"molecule": "O=C(NOC[C@H](O)CO)c1ccc(F)c(F)c1Nc1ccc(I)cc1F", "kinase still bound, per cent of control, %": 50}
{"molecule": "O=C1Nc2ccc(I)cc2/C1=C/c1cc(Br)c(O)c(Br)c1", "kinase still bound, per cent of control, %": 100}
{"molecule": "CCOc1cc(N2CCC(O)CC2)ccc1Nc1ncc2c(n1)N(C)c1ccccc1C(=O)N2C", "kinase still bound, per cent of control, %": 100}
{"molecule": "CCCS(=O)(=O)Nc1ccc(F)c(C(=O)c2c[nH]c3ncc(Cl)cc23)c1F", "kinase still bound, per cent of control, %": 100}
{"molecule": "COc1cc2ncn(-c3cc(OCc4ccccc4C(F)(F)F)c(C(N)=O)s3)c2cc1OC", "kinase still bound, per cent of control, %": 100}
{"molecule": "COc1cc(N2CCN(C)CC2)ccc1Nc1ncc2c(n1)N(C)c1ccccc1C(=O)N2C", "kinase still bound, per cent of control, %": 100}
{"molecule": "N#Cc1cc(-c2ccnc(Nc3ccc(-n4cnc(-c5cccnc5)n4)cc3)n2)cc(N2CCOCC2)c1", "kinase still bound, per cent of control, %": 100}
{"molecule": "CCN1CCN(Cc2ccc(Nc3ncc4c(n3)N(C)c3ccccc3C(=O)N4C)cc2C(F)(F)F)CC1", "kinase still bound, per cent of control, %": 18}
{"molecule": "COc1cc(C(=O)N2CCC(N3CCN(C)CC3)CC2)ccc1Nc1ncc2c(n1)N(C)c1ccccc1C(=O)N2C", "kinase still bound, per cent of control, %": 89}
{"molecule": "CC1=C(C(=O)Nc2cc3cn[nH]c3cc2F)C(c2ccc(C(F)(F)F)cc2)CC(=O)N1 (stereo not drawn)", "kinase still bound, per cent of control, %": 63}
{"molecule": "NC(=O)Nc1cc(-c2cccc(F)c2)sc1C(=O)N[C@@H]1CCCNC1", "kinase still bound, per cent of control, %": 62}
{"molecule": "CN(C)C/C=C/C(=O)Nc1cccc(Nc2ncc3c(n2)N(C)c2ccccc2C(=O)N3C)c1", "kinase still bound, per cent of control, %": 72}
{"molecule": "C=CC(=O)Nc1cc(-n2c(=O)ccc3cnc4ccc(-c5cn[nH]c5)cc4c32)ccc1C", "kinase still bound, per cent of control, %": 18}
{"molecule": "COc1cc(N2CCN(C)CC2)ccc1Nc1nc(N)c(C(=O)c2c(Cl)cccc2Cl)s1", "kinase still bound, per cent of control, %": 100}
{"molecule": "Cc1ccc(NC(=O)c2cccc(C(C)(C)C#N)c2)cc1Nc1ccc2ncn(C)c(=O)c2c1", "kinase still bound, per cent of control, %": 100}
{"molecule": "COc1cc2ncnc(-n3nc(-c4ccccn4)nc3N)c2cc1OC", "kinase still bound, per cent of control, %": 41}
{"molecule": "COc1cc(C(=O)NC2CCN(C)CC2)ccc1Nc1ncc2c(n1)N(C1CCCC1)CCC(=O)N2C(C)C", "kinase still bound, per cent of control, %": 100}
{"molecule": "O=c1[nH]c2ccccc2n1C1CCN(Cc2ccc(-c3nc4cc5[nH]cnc5cc4nc3-c3ccccc3)cc2)CC1", "kinase still bound, per cent of control, %": 62}
